- System: Eca-109/VCR
- ASSAY NAME: Cytotoxicity against human Eca-109/VCR cells assessed as reduction in cell viability at 5.0 uM incubated for 48 hrs by CCK-8 assay relative to control
- Type: functional
MEASURED QUANTITY: Cell viability (% of control) (%)
The figure you give is taken to be in %; do not add the unit.

These solved cases illustrate the format of a correct answer.
>  <COMPOUND>
COc1cc2c(cc1OC)C(Cc1ccc(OC)c(Oc3ccc([N+](=O)[O-])cc3)c1)N(C)CC2 (centres undefined)

>  <UNIT ABBREVIATION>
%

>  <Cell viability (% of control)>
100.4

$$$$
>  <COMPOUND>
COc1cc2c(cc1OC)C(Cc1ccc(OCCC(C)C)c(OC)c1)N(C)CC2 (centres undefined)

>  <UNIT ABBREVIATION>
%

>  <Cell viability (% of control)>
105.5

$$$$
>  <COMPOUND>
COc1cc2c(cc1OC)C(Cc1ccc(OC)c(OC(=O)C3CCCCC3)c1)N(C)CC2 (centres undefined)

>  <UNIT ABBREVIATION>
%

>  <Cell viability (% of control)>
103.6

$$$$
>  <COMPOUND>
CCCCCCCCOc1ccc(CC2c3cc(OC)c(OC)cc3CCN2C)cc1OC (centres undefined)

>  <UNIT ABBREVIATION>
%

>  <Cell viability (% of control)>
94.7

$$$$
>  <COMPOUND>
COc1cc2c(cc1OC)C(Cc1ccc(OC)c(OS(=O)(=O)c3ccccc3[N+](=O)[O-])c1)N(C)CC2 (centres undefined)

>  <UNIT ABBREVIATION>
%

>  <Cell viability (% of control)>
102

$$$$

As a next step, examine the compound that follows.
Prompt: // Cell viability (% of control) lookup, key: CCOCCOCCOc1ccc(CC2c3cc(OC)c(OC)cc3CCN2C)cc1OC (centres undefined)
Completion: 103.6

====

The entries below are paired with their reported Cell viability (% of control).
- System: Eca-109/VCR
- ASSAY NAME: Cytotoxicity against human Eca-109/VCR cells assessed as reduction in cell viability at 5.0 uM incubated for 48 hrs by CCK-8 assay relative to control
- Format: functional
The figure you give is taken to be in %; do not add the unit.

These solved cases illustrate the format of a correct answer.
>  <COMPOUND>
COc1cc2c(cc1OC)C(Cc1ccc(OC)c(OS(=O)(=O)c3ccc([N+](=O)[O-])cc3)c1)N(C)CC2 (stereo unspecified)

>  <Cell viability (% of control) / %>
101.5

$$$$
>  <COMPOUND>
COc1cc2c(cc1OC)C(Cc1ccc(OS(=O)(=O)c3ccc(C#N)cc3)c(OC)c1)N(C)CC2 (stereo unspecified)

>  <Cell viability (% of control) / %>
99.9

$$$$
>  <COMPOUND>
COc1ccc(CCN(C)CCCC(C#N)(c2ccc(OC)c(OC)c2)C(C)C)cc1OC (stereo unspecified) [VERAPAMIL]

>  <Cell viability (% of control) / %>
98.9

$$$$
>  <COMPOUND>
COc1cc2c(cc1OC)C(Cc1ccc(OCc3ccc(Cl)cc3Cl)c(OC)c1)N(C)CC2 (stereo unspecified)

>  <Cell viability (% of control) / %>
92.4

$$$$
>  <COMPOUND>
COc1cc2c(cc1OC)C(Cc1ccc(OC)c(OS(=O)(=O)c3ccc(C(F)(F)F)cc3)c1)N(C)CC2 (stereo unspecified)

>  <Cell viability (% of control) / %>
100.5

$$$$

Prompt: Record lookup: for Eca-109/VCR, what Cell viability (% of control) belongs to COc1cc2c(cc1OC)C(Cc1ccc(OS(=O)(=O)c3ccccc3[N+](=O)[O-])c(OC)c1)N(C)CC2 (stereo unspecified) ?
Completion: 99.1

Prompt: Record lookup: for Eca-109/VCR, what Cell viability (% of control) belongs to COc1cc2c(cc1OC)C(Cc1ccc(OCC3CC3)c(OC)c1)N(C)CC2 (stereo unspecified) ?
Completion: 104.2

Prompt: Record lookup: for Eca-109/VCR, what Cell viability (% of control) belongs to COc1cc2c(cc1OC)C(Cc1ccc(OS(=O)(=O)c3ccccc3F)c(OC)c1)N(C)CC2 (stereo unspecified) ?
Completion: 98.2

Prompt: Record lookup: for Eca-109/VCR, what Cell viability (% of control) belongs to COc1cc2c(cc1OC)CN(CCc1ccc(NC(=O)c3cc(OC)c(OC)cc3NC(=O)c3cnc4ccccc4c3)cc1)CC2 [TARIQUIDAR] ?
Completion: 84.8

Prompt: Record lookup: for Eca-109/VCR, what Cell viability (% of control) belongs to CCOCCOCCOc1cc(CC2c3cc(OC)c(OC)cc3CCN2C)ccc1OC (stereo unspecified) ?
Completion: 103.1

Prompt: Record lookup: for Eca-109/VCR, what Cell viability (% of control) belongs to COc1cc2c(cc1OC)C(Cc1ccc(OS(=O)(=O)c3ccc([N+](=O)[O-])cc3)c(OC)c1)N(C)CC2 (stereo unspecified) ?
Completion: 105.6

Prompt: Record lookup: for Eca-109/VCR, what Cell viability (% of control) belongs to COc1cc2c(cc1OC)C(Cc1ccc(OC)c(OS(=O)(=O)c3ccc(C#N)cc3)c1)N(C)CC2 (stereo unspecified) ?
Completion: 96

Prompt: Record lookup: for Eca-109/VCR, what Cell viability (% of control) belongs to COc1cc2c(cc1OC)C(Cc1ccc(OC)c(OS(=O)(=O)c3ccc4ccccc4c3)c1)N(C)CC2 (stereo unspecified) ?
Completion: 94.7

Prompt: Record lookup: for Eca-109/VCR, what Cell viability (% of control) belongs to COc1cc2c(cc1OC)C(Cc1ccc(OCC3CCC3)c(OC)c1)N(C)CC2 (stereo unspecified) ?
Completion: 107.9
